Measured IC50, listed per entry for reference.
- target_system: Recombinant Human MMP-13 (Homo sapiens)
- Construct: purchased R&D systems 511-MM
- test_summary: MMP-13 inhibitory activity (MMP-13 specific fluorescent substrate with quencher)
- Format: biochemical
- conditions: Recombinant Human MMP-13, fluorescent substrate, 25° C. for 1 h; read-out: IC50 MMP13 (Experimental Example 3)

[[record]]
compound = "O=C(O)[C@]1(NS(=O)(=O)c2ccc3c(c2)Cc2cc(Br)ccc2-3)C[C@@H]1c1ccccc1 [Example 1-91]"
measured_property = "IC50"
value_measured = "< 0.1 µM"

[[record]]
compound = "O=C(Cc1cccc(C2CC2(NS(=O)(=O)c2ccc(-c3ccc(Cl)cc3)s2)C(=O)O)c1)N1CCOCC1 (centres unmarked) [Example 2-190]"
measured_property = "IC50"
value_measured = "< 0.1 µM"

[[record]]
compound = "O=C(O)[C@]1(NS(=O)(=O)c2ccc(-c3noc4c3CCCC4)s2)C[C@@H]1c1ccccc1 [Example 2-154]"
measured_property = "IC50"
value_measured = "< 1 µM"

[[record]]
compound = "O=C(O)C1(CS(=O)(=O)N2CCN(c3ccc(Cl)cc3)CC2)CC1c1ccccc1 (centres unmarked) [Example 2-186]"
measured_property = "IC50"
value_measured = "≥ 1 µM"

[[record]]
compound = "O=C(O)C1(NS(=O)(=O)c2ccc(-c3ccc(Cl)cc3)s2)CC1c1ccccc1OCc1ccccn1 (centres unmarked) [Example 2-23]"
measured_property = "IC50"
value_measured = "< 1 µM"


Data request: // lookup IC50 for O=C(NC1CC1)c1ccc(S(=O)(=O)NC2(C(=O)O)CC2c2ccccc2)s1 (centres unmarked) [Example 2-105]
Data returned: ≥ 10 µM

Data request: For CC(C)(C)OC(=O)Nc1ccccc1C1CC1(NS(=O)(=O)c1ccc(-c2ccc(Cl)cc2)s1)C(=O)O (centres unmarked) [Example 2-217] , what is its reported IC50?
Data returned: < 1 µM

Data request: Any idea what IC50 was measured for O=C(O)C1(NS(=O)(=O)c2ccc(-c3ccc(Cl)cc3)cc2)CC1c1cccc(OCCO)c1 (centres unmarked) [Example 1-66] ?
Data returned: < 0.1 µM

Data request: Data request, read-out IC50, for CN(C)CCC(=O)Nc1cccc(C2CC2(NS(=O)(=O)c2ccc(-c3ccc(Cl)cc3)s2)C(=O)O)c1 (centres unmarked) [Example 2-223]
Data returned: < 1 µM

Data request: Reported IC50, compound CC(C)C1CC1(NS(=O)(=O)c1ccc(-c2ccc(Cl)cc2)s1)C(=O)O (centres unmarked) [Example 2-59] : ____
Data returned: < 1 µM

Data request: What does the data say about its IC50? Entry: O=C(O)[C@]1(NS(=O)(=O)c2ccc(-c3ccc(Cl)cc3)s2)C[C@@H]1c1ccccc1 [Example 1-85]
Data returned: < 0.1 µM

Data request: // returns reported IC50 for input O=C(OCCCc1ccccc1C1CC1(NS(=O)(=O)c1ccc(-c2cc(C(F)(F)F)on2)s1)C(=O)O)N1CCC[C@H]1CO (some centres unmarked) [Example 2-254]
Data returned: < 0.1 µM

Data request: For the compound shown here, O=C(O)C1(NS(=O)(=O)c2ccc(-c3ccc(Cl)cc3)cc2)CC1c1cccc(-c2ccccc2)c1 (centres unmarked) [Example 1-26] , give the reported IC50.
Data returned: < 1 µM

Data request: Query (compound): O=C(O)C1(NS(=O)(=O)N2CCn3c(cc4cc(Cl)ccc43)C2)CC1c1ccccc1 (centres unmarked) [Example 2-156] ; field requested: IC50
Data returned: ≥ 1 µM

Data request: What does the record list as IC50 for CS(=O)(=O)Nc1cccc(C2CC2(NS(=O)(=O)c2ccc(-c3ccc(Cl)cc3)cc2)C(=O)O)c1 (centres unmarked) [Example 1-38] ?
Data returned: < 0.1 µM
